assay-system: 5‐lipoxygenase (5‐LOX) (Homo sapiens, UniProt P09917)
Construct: made in house; host or cells: E. coli BL21 (DE3)
Sequence (P09917 whole entry): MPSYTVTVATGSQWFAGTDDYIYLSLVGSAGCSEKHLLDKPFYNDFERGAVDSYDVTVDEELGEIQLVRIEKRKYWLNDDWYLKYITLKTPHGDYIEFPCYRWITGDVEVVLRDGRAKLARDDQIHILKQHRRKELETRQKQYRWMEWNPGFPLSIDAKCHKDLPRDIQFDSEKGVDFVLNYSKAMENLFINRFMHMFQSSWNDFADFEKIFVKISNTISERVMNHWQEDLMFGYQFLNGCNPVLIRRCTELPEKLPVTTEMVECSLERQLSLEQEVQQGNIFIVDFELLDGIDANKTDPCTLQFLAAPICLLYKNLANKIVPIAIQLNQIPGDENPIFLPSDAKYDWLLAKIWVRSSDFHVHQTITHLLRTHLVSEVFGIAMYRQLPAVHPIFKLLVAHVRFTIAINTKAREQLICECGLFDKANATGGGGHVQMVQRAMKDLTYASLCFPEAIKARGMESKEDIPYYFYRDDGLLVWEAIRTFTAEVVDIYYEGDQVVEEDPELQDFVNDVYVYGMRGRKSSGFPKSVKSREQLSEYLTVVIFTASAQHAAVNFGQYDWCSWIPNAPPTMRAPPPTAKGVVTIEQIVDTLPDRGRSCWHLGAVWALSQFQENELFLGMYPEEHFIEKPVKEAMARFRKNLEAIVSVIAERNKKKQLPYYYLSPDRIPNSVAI
protocol-notes: Differential scanning fluorimetry (DSF) screen on 5-LOX
Assay type: binding
measurement-conditions: 500 μM fragment, mean of duplicates
Record form. Attribute: DSF/ΔT m 5‐LOX. Fill in for each entry.
Answers are plain numbers, in °C.

Please review the following examples before continuing.
[[record]]
smiles_repr = "CCCCOc1cc(C(=O)OC)ccc1N"
assay_system = "5‐lipoxygenase (5‐LOX) (Homo sapiens, UniProt P09917)"
numeric_value = "−1.1"

[[record]]
smiles_repr = "Cc1cc(=O)n(-c2ccc(C)c(C)c2)[nH]1"
assay_system = "5‐lipoxygenase (5‐LOX) (Homo sapiens, UniProt P09917)"
numeric_value = 1.1

[[record]]
smiles_repr = "Fc1ccc(-c2c[nH]c3ccccc23)cc1"
assay_system = "5‐lipoxygenase (5‐LOX) (Homo sapiens, UniProt P09917)"
numeric_value = 0.9


For each of the molecules below, note its DSF/ΔT m 5‐LOX.
1. CCN(Cc1ccccc1)c1ccccc1
2. Cc1ccccc1C(=O)Nc1ccccc1
3. c1ccc(N2CCNCC2)nc1
4. Oc1ccc(-c2ccc(F)cc2F)cc1

1: 0.9; 2: −1.4; 3: 0.9; 4: −1.1

###

Test system: farnesoid X receptor (FXR)
Construct: made in house; host or cells: E. coli BL21 (DE3)
protocol-notes: Differential scanning fluorimetry (DSF) screen on FXR
Type: binding, human
measurement-conditions: 500 μM fragment, mean of duplicates
Mark each entry Criterion met if its DSF/ΔT m FXR sits below 0.3 °C, and Criterion not met for all others.

Before answering, review these 2 worked examples.
[[record]]
smiles_repr = "Oc1ccc2cc[nH]c2c1"
category = "Criterion not met"

[[record]]
smiles_repr = "Cc1ccccc1C(=O)Nc1ccccc1"
category = "Criterion met"


Does this compound meet the criterion DSF/ΔT m FXR < 0.3 °C? c1ccc(N2CCNCC2)nc1
Criterion met

Does this compound meet the criterion DSF/ΔT m FXR < 0.3 °C? CCCCOc1cc(C(=O)OC)ccc1N
Criterion not met

Does this compound meet the criterion DSF/ΔT m FXR < 0.3 °C? Fc1ccc(-c2c[nH]c3ccccc23)cc1
Criterion met

###

System: RXRα
Construct: MBP (N, cleaved yes); poly-N-tag, His8-tag, TEV site (N, cleaved yes); made in house; host or cells: E. coli T7-express with pGro7 (GroEL/ES)
protocol-notes: Differential scanning fluorimetry (DSF) screen on RXRα
Type: binding
measurement-conditions: 500 μM fragment, mean of duplicates
Record form. Attribute: DSF/ΔT m RXRα. Fill in for each entry.
Numbers only, in °C.

[[record]]
compound = "Fc1ccc(-c2c[nH]c3ccccc23)cc1 [Compound 10]"
unit_text = "°C"
numeric_value = 1.9

[[record]]
compound = "c1ccc(N2CCNCC2)nc1 [Compound 1]"
unit_text = "°C"
numeric_value = 1.1

[[record]]
compound = "Oc1ccc(Cc2ccccc2)cc1 [Compound 4]"
unit_text = "°C"
numeric_value = "−2.4"


For each of the compounds below, note its DSF/ΔT m RXRα.
1. Oc1ccc2cc[nH]c2c1 [Compound 5]
2. CCN(Cc1ccccc1)c1ccccc1 [Compound 7]
3. Cc1ccccc1C(=O)Nc1ccccc1 [Compound 6]

1. 0.8
2. −0.4
3. −1.0

For each of the compounds below, note its DSF/ΔT m RXRα.
1. Oc1ccc(-c2ccc(F)cc2F)cc1 [Compound 9]
2. Cc1cc(=O)n(-c2ccc(C)c(C)c2)[nH]1 [Compound 2]
3. CCCCOc1cc(C(=O)OC)ccc1N [Compound 3]

2.3
−9.5
−2.9
